Tested on: SNU668
methodSummary: Cell viability drug screen, 12-point dose-response AUC
Format: cell-based, human
settings: SNU668 cells (SEM subtype); 72 hours
Description: An FDA-approved small-molecule pharmacological compound (#L1300) and an anticancer compound for research (#L2000) were purchased from Selecckchem and a 10 mM solution was prepared in DMSO. […] Cells cultured for cell-based drug assay were inoculated into a 96-well white optical plate (Corning) at 5×10^3 cells per well. […] The final drug concentration in the 5 ns range and the DMSO specification control (0.5%) were calculated. […]
Counter-ions that a name gives are not always drawn.
measuredEndpoint: Average Area Under the Viability Curve (AUC), AUC norm value
In your answer, state the number alone without any accompanying words.

Reference set (2 entries):
| compound | assayTarget | observedValue |
| --- | --- | --- |
| OC1(c2ccc(Cl)c(C(F)(F)F)c2)CCN(CCCC(c2ccc(F)cc2)c2ccc(F)cc2)CC1 | SNU668 | 0.00275 |
| O=C(Nc1c[nH]nc1-c1nc2ccc(CN3CCOCC3)cc2[nH]1)NC1CC1 | SNU668 | 0.6968 |

// CC[C@]1(O)C[C@H]2CN(CCc3c([nH]c4ccccc34)[C@@](C(=O)OC)(c3cc4c(cc3OC)N(C=O)[C@H]3[C@@](O)(C(=O)OC)[C@H](OC(C)=O)[C@]5(CC)C=CCN6CC[C@]43[C@@H]65)C2)C1 : Average Area Under the Viability Curve (AUC), AUC norm value value = −1.315

// COc1cc([C@@H]2c3cc4c(cc3[C@@H](O[C@@H]3O[C@@H]5CO[C@@H](c6cccs6)O[C@H]5[C@H](O)[C@H]3O)[C@H]3COC(=O)[C@H]23)OCO4)cc(OC)c1O [Teniposide (Vumon), Teniposide] : Average Area Under the Viability Curve (AUC), AUC norm value value = −0.6175

// Nc1ccn([C@@H]2O[C@H](CO)[C@@H](O)C2(F)F)c(=O)n1 : Average Area Under the Viability Curve (AUC), AUC norm value value = −1.312

// CCCCCCCCCCCCCCCC[n+]1ccccc1 [Cetylpyridinium Chloride] : Average Area Under the Viability Curve (AUC), AUC norm value value = −0.02952

// COc1cccc2c1C(=O)c1c(O)c3c(c(O)c1C2=O)C[C@@](O)(C(=O)CO)C[C@@H]3O[C@H]1C[C@H](N)[C@H](O)[C@H](C)O1 : Average Area Under the Viability Curve (AUC), AUC norm value value = −0.3909

// Cc1ccc(S(=O)(=O)/C=C/C#N)cc1 : Average Area Under the Viability Curve (AUC), AUC norm value value = 0.8081

// CC[C@@H]1C(=O)N(C)c2cnc(Nc3ccc(C(=O)N[C@H]4CC[C@H](N5CCN(CC6CC6)CC5)CC4)cc3OC)nc2N1C(C)C : Average Area Under the Viability Curve (AUC), AUC norm value value = 0.1516

// COC(=O)Nc1nc2ccc(C(=O)c3cccs3)cc2[nH]1 : Average Area Under the Viability Curve (AUC), AUC norm value value = −0.1188

// C/C=C(\C)C(=O)N[C@@H](c1ccccc1)[C@@H](O)C(=O)O[C@H]1C[C@@]2(O)[C@@H](OC(=O)c3ccccc3)[C@@H]3[C@]4(OC(C)=O)CO[C@@H]4C[C@H](O)[C@@]3(C)C(=O)[C@H](OC(C)=O)C(=C1C)C2(C)C : Average Area Under the Viability Curve (AUC), AUC norm value value = −0.1911

// NC(=O)Nc1cc(-c2cccc(F)c2)sc1C(=O)N[C@H]1CCCNC1 : Average Area Under the Viability Curve (AUC), AUC norm value value = 1.537

// CC(C)C[C@H](NC(=O)CNC(=O)c1cc(Cl)ccc1Cl)B1OC(=O)C(CC(=O)O)(CC(=O)O)O1 : Average Area Under the Viability Curve (AUC), AUC norm value value = 1.232

// COc1cc(N2CCC(N3CCN(C)CC3)CC2)ccc1Nc1ncc(Cl)c(Nc2ccccc2S(=O)(=O)C(C)C)n1 : Average Area Under the Viability Curve (AUC), AUC norm value value = 1.009

// CC(C)(C)c1ccc(C(O)CCCN2CCC(C(O)(c3ccccc3)c3ccccc3)CC2)cc1 (stereo not drawn) : Average Area Under the Viability Curve (AUC), AUC norm value value = −0.5647

// O=C(/C=C/c1cccnc1)NCCCCC1CCN(C(=O)c2ccccc2)CC1 : Average Area Under the Viability Curve (AUC), AUC norm value value = −3.304

// COc1cccc2c1C(=O)c1c(O)c3c(c(O)c1C2=O)C[C@@](O)(C(C)=O)C[C@@H]3O[C@H]1C[C@H](N)[C@H](O)[C@H](C)O1 [Daunorubicin HCl (Daunomycin HCl), Daunorubicin HCl] : Average Area Under the Viability Curve (AUC), AUC norm value value = −0.9142

// Cn1cc(CNCC2CCN(c3ncc(C(=O)NO)cn3)CC2)c2ccccc21 : Average Area Under the Viability Curve (AUC), AUC norm value value = 1.486

// Cc1ccc([N+](=O)[O-])cc1S(=O)(=O)N(C)/N=C/c1cnc2ccc(Br)cn12 : Average Area Under the Viability Curve (AUC), AUC norm value value = −0.428

// CCCCc1oc2ccc(NS(C)(=O)=O)cc2c1C(=O)c1ccc(OCCCN(CCCC)CCCC)cc1 [Dronedarone HCl (Multaq), Dronedarone HCl] : Average Area Under the Viability Curve (AUC), AUC norm value value = 0.4123

// CC(C)[C@H](C(=O)Nc1ccc(C(=O)NO)cc1)c1ccccc1 : Average Area Under the Viability Curve (AUC), AUC norm value value = 0.2515
